- assay procedure: compound fluorescence in toxin protease inhibitor counterscreen, primary screen, artefact control for toxin protease inhibitor project, biochemical, multiplex microsphere, HTS (AID 624483)
- applied conditions: compound autofluorescence counterscreen, microsphere flow cytometry; hits give high values
Screen size: about 360,000 compounds; about 11,000 (3.1%) were called active. Inconclusive results (about 2%) are left out. The sample as a whole holds a higher share of actives than the screen did.
measured attribute: fluorescence intensity
Give bare numbers.

Sample records with fluorescence intensity:
- CCC(Oc1ccccc1)C(=O)OCC(=O)Nc1c(C)nn(-c2ccccc2)c1C (stereo unspecified): 3640
- CCOC(=O)C1CCN(C(=O)Cc2c(C(=O)O)[nH]c3ccccc23)CC1: 24500
- CCCC(=O)N1CCC1(C)C(=O)NCc1ccc(C(C)C)cc1 (stereo unspecified): 3880

Items follow; give fluorescence intensity for each.
1. O=C(O)CCC(=O)N(Cc1cccs1)Cc1cccs1
2. NC(=O)c1ccc(N2CCOCC2)nc1
3. CCOC(=O)C1CCN(C(=O)COc2cccc3ccccc23)CC1
4. N#Cc1cccc(NC(=O)c2cc(C3CCCCN3C(=O)CCc3ccccc3)on2)c1 (stereo unspecified)
5. CCN1C(=O)[C@@H]2[C@@H]3CN(S(=O)(=O)c4ccccc4C)[C@@H](c4ccc(Cl)cc4)[C@@H]3C(=O)C[C@@H]2C1=O

1: 9340; 2: 2600; 3: 5570; 4: 4290; 5: 5460

Items follow; give fluorescence intensity for each.
1. Cc1ccc(S(=O)(=O)N(C)C2(C)CCS(=O)(=O)C2)cc1 (stereo unspecified)
2. COc1ccc(CCNC(=O)C2CCCN(S(=O)(=O)c3ccc(OC)cc3)C2)cc1 (stereo unspecified)

1. 21400
2. 5700

----------
- assay procedure: compound fluorescence in toxin protease inhibitor counterscreen, primary screen, artefact control for toxin protease inhibitor project, biochemical, multiplex microsphere, HTS (AID 624483)
- applied conditions: compound autofluorescence counterscreen, microsphere flow cytometry
The campaign covered roughly 360,000 compounds. About 11,000 (3.1%) were called active. Not shown: some 2% with an inconclusive outcome. Cut-off read from the data, not from the text of the source: active = fluorescence intensity above about 16000; inconclusive = no clear call, values can overlap the other calls; inactive = below that. The list comes from a sample in which actives are over-represented; it also holds close analogues and randomly drawn compounds.
Choose the fitting class; nothing outside active, inactive is accepted.

Each compound tested received a call. Report the one for Cc1ccc(-c2nc3ccc(Br)cn3c2Cc2ccccc2C(F)(F)F)cc1 . inactive

Each compound tested received a call. Report the one for CC1(C)CC(CCC(=O)Nc2ccccc2Cl)C(=O)O1 (stereo not given) . active

Each compound tested received a call. Report the one for CN(C)/C=C(\C#N)C(=O)c1cccnc1Oc1ccc(F)cc1F . active

----------
- assay procedure: compound fluorescence in toxin protease inhibitor counterscreen, primary screen, artefact control for toxin protease inhibitor project, biochemical, multiplex microsphere, HTS (AID 624483)
- applied conditions: compound autofluorescence counterscreen, microsphere flow cytometry; hits give high values
Hit rate of the full screen: of about 360,000 compounds, about 11,000 (3.1%) were called active. About 2% were inconclusive and are not listed. This is one part of a sample in which actives are shown more often than they occur.
measured attribute: fluorescence intensity
One number for each entry.

Sample records with fluorescence intensity:
• O=C(NCc1ccco1)C1CCCN(S(=O)(=O)c2ccccc2)C1 (stereo unspecified) = 21200
• COc1ccc(C)cc1S(=O)(=O)Nc1cccc(Cl)c1Cl = 2450
• COc1ccc(C(=O)N2CCCN(C)CC2)c(OC)c1 = 4060
• CC1(Cc2cccc(C#N)c2)C(=O)Nc2ccc(-c3cccc(C(F)(F)F)c3)cc21 (stereo unspecified) = 2910
• CC1CCCN(C(=O)Cn2c(=O)oc3ccccc32)C1 (stereo unspecified) = 3850

Items follow; give fluorescence intensity for each.
1. O=C(NCc1ccco1)C1CCCN(S(=O)(=O)c2cnc[nH]2)C1 (stereo unspecified)
2. O=C(O)c1ccc(F)c(S(=O)(=O)Nc2ccccc2)c1
3. Cc1nc([N+](=O)[O-])cn1CC(=O)Nc1ccc(Cl)cc1
4. COc1ccc(OC)c(NC(=S)N2CCc3ccccc3C2)c1

5600
9990
3080
2080
